The following compounds are listed with their measured Ki values.
molecular target: Neuronal acetylcholine receptor subunit alpha-7 (Rattus norvegicus); test: Displacement of [3H]methyllylcaconitine from alpha7 nAChR in rat brain; type: tissue-based
# output: bare number, implied unit nM

Worked examples, 5 compounds total:
compound="CN1CC2CN(c3ccc4c(c3)C(=O)c3ccccc3-4)CC2C1 (centres undefined)" system_name="Neuronal acetylcholine receptor subunit alpha-7 (Rattus norvegicus)" experimental_readout=Ki readout_number=63
compound="CN1CC2CN(c3ccc4c(c3)C(=O)c3cc(N)ccc3-4)CC2C1 (centres undefined)" system_name="Neuronal acetylcholine receptor subunit alpha-7 (Rattus norvegicus)" experimental_readout=Ki readout_number=0.65
compound=O=C1c2cc(O[C@@H]3CCNC3)ccc2-c2ccc(O[C@@H]3CCNC3)cc21 system_name="Neuronal acetylcholine receptor subunit alpha-7 (Rattus norvegicus)" experimental_readout=Ki readout_number=71
compound=CCN(CC)CCCCOc1ccc2c(c1)C(=O)c1cc(OCCCCN(CC)CC)ccc1-2 system_name="Neuronal acetylcholine receptor subunit alpha-7 (Rattus norvegicus)" experimental_readout=Ki readout_number=2300
compound=O=C1c2cc(OCCN3CCCC3)ccc2-c2ccc(OCCN3CCCC3)cc21 system_name="Neuronal acetylcholine receptor subunit alpha-7 (Rattus norvegicus)" experimental_readout=Ki readout_number=53

Which Ki reading was recorded for the compound O=S1(=O)c2ccccc2-c2ccc(O[C@@H]3CN4CCC3CC4)cc21 ?
28

Give the measured Ki of O=S1(=O)c2ccccc2-c2ccc(O[C@H]3CN4CCC3CC4)cc21 .
3.9

Given the entry CCN(CC)CCOc1ccc2c3ccc(OCCN(CC)CC)cc3[s+]([O-])c2c1 , report its measured Ki.
690

Look up Ki for this compound: CCN(CC)CCCc1ccc2c(c1)C(=O)c1cc(CCCN(CC)CC)ccc1-2
2900

----------
biological target: Voltage-gated inwardly rectifying potassium channel KCNH2 (Homo sapiens, UniProt Q12809)
Sequence (Q12809 whole entry): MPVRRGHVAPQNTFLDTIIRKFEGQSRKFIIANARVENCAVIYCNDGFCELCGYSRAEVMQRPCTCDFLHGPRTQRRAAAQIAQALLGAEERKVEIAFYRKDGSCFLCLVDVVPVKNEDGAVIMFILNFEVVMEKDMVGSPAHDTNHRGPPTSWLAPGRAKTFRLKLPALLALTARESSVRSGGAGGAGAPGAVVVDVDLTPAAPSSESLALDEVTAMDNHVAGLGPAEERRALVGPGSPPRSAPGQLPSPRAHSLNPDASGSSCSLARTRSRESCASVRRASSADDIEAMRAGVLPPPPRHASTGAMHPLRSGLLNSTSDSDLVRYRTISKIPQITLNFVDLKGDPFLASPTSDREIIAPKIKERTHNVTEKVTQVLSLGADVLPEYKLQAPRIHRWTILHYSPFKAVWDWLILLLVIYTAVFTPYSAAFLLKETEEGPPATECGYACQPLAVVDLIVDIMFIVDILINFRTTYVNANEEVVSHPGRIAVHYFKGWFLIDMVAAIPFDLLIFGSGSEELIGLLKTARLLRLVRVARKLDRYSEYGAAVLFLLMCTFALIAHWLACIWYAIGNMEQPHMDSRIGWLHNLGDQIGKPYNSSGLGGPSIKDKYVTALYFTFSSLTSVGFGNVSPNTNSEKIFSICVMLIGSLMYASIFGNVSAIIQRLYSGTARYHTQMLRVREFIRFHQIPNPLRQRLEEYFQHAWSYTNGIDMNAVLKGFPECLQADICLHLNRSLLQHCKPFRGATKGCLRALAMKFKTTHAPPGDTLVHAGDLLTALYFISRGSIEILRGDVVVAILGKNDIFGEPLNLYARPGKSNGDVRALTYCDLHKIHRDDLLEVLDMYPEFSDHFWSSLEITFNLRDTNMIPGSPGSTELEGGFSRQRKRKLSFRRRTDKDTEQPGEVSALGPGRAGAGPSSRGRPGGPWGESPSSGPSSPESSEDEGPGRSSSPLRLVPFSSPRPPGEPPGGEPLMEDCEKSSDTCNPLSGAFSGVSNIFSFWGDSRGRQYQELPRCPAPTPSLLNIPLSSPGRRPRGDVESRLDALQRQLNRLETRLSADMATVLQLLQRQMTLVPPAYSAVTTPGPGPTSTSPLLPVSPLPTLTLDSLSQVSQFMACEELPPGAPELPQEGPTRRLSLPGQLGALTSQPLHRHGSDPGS
experimental readout: Ki (nM)
Reply with just the number (in nM).

What value of measured Ki is listed for O=S1(=O)c2ccccc2-c2ccc(N3CCN4CCC3CC4)cc21 ?
470

----------
molecular target: Neuronal acetylcholine receptor subunit alpha-7 (Rattus norvegicus); assay: Displacement of [3H]methyllylcaconitine from alpha7 nAChR in rat brain
pKi: −log10 of the molar value.
Threshold rule: pKi greater than or equal to 9 is satisfied; below that, not satisfied.

smiles_input=CCN(CC)CCOc1ccc2c(c1)C(O)c1cc(OCCN(CC)CC)ccc1-2 system_name="Neuronal acetylcholine receptor subunit alpha-7 (Rattus norvegicus)" class="not satisfied"
smiles_input=CN1C[C@H]2CN(c3ccc4c(c3)C(=O)c3cc(N5C[C@@H]6CN(C)[C@@H]6C5)ccc3-4)C[C@H]21 system_name="Neuronal acetylcholine receptor subunit alpha-7 (Rattus norvegicus)" class=satisfied

Please turn your attention to the following entry.
Hello, I need to know if NCCOc1ccc2c(c1)C(=O)c1cc(OCCN)ccc1-2 has measured pKi not below 9. Thanks!
not satisfied

----------
log10(Ki) values, listed per item
target: Neuronal acetylcholine receptor subunit alpha-7 (Rattus norvegicus, UniProt Q05941); assay: Displacement of [3H]methyllylcaconitine from alpha7 nAChR in rat brain
Sequence (Q05941 whole entry): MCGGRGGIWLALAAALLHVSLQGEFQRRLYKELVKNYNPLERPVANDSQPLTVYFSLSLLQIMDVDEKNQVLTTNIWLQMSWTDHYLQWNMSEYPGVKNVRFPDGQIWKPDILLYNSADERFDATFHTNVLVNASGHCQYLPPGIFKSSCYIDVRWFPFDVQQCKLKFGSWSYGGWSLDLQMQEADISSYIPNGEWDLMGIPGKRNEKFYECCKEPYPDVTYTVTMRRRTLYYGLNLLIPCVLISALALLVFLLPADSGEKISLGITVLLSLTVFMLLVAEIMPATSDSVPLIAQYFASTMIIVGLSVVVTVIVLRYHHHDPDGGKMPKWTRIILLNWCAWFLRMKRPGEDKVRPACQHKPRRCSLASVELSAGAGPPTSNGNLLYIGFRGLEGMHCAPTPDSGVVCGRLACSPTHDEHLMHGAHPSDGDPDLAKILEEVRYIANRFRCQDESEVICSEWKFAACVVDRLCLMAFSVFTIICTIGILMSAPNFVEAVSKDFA
Base-10 log of Ki, unit nM.

molecule=CCNCCOc1ccc2c(c1)C(=O)c1cc(OCCNCC)ccc1-2 experimental_readout=log10(Ki) readout_number=2.98
molecule=O=C1c2ccccc2-c2ccc(O[C@@H]3CN4CCC3CC4)cc21 experimental_readout=log10(Ki) readout_number=1.08
molecule=CCN(CC)CC#Cc1ccc2c(c1)C(=O)c1cc(C#CCN(CC)CC)ccc1-2 experimental_readout=log10(Ki) readout_number=1.94
molecule=O=S1(=O)c2ccccc2-c2ccc(N3CCN4CCC3CC4)cc21 experimental_readout=log10(Ki) readout_number=-1.64
molecule="O=C1c2cc(N3CC4CNCC4C3)ccc2-c2ccc(N3CC4CNCC4C3)cc21 (configuration not stated)" experimental_readout=log10(Ki) readout_number=-0.51
molecule=CN1CCC(Oc2ccc3c(c2)C(=O)c2cc(OC4CCN(C)CC4)ccc2-3)CC1 experimental_readout=log10(Ki) readout_number=1.57

Lab request: please report log10(Ki) under test system Neuronal acetylcholine receptor subunit alpha-7 (Rattus norvegicus, UniProt Q05941) for CN1CC[C@@H]1COc1ccc2c(c1)C(=O)c1cc(OC[C@H]3CCN3C)ccc1-2
0.63
